inhibition by entry:
test: inhibitors of Chlamydomonas gravitaxis, primary screen, whole organism, Chlamydomonas reinhardtii, WT vs cilia-less mutant, absorbance, 96-well (AID 463189); conditions: OD600 absorbance, 2 days, at 10 µM, hits give high values;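 further: 0% = wild type cc124 cells in DMSO and 100% = ciliumless bld1 mutant cells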
observed_property: inhibition (%)

CCOC(=O)C1=C(CSc2nc3c(cc2C#N)CN(C)CC3)OC(N)=C(C#N)C1c1ccccc1 (stereo unspecified) | -1.09
CC1(C)Cc2c(C#N)c(NCCc3ccccc3)nc(-c3ccco3)c2CO1 | 34.4
CCOP(=O)(c1ccccc1)c1nc(-c2ccc(F)cc2)oc1N1CCCCC1 (stereo unspecified) | 2.55
CCOC(=O)c1c(C)n(C)c2ccc(OC)c(NC(=O)CN3CCCCC3)c12 | -10.1
O=C(O)CN(c1ccccc1)C1SC(=O)NC1=O (stereo unspecified) | 31.8
CC(C)CC(=O)Nc1ccccc1N1CCCC1 | -8.2
